Tested on: Caco-2 cells
protocol summary: Endocytosis inhibition experiments (Neu5Gc incorporation)
Type: cell-based, human
assay conditions: Caco-2, 2 h pre-treatment with drug, then 3 mM Neu5Gc
reported property: Neu5Gc incorporation into membrane-bound glycoconjugates in the presence of inhibitor (%)
Respond with the bare value in %.

In: Requested read-out Neu5Gc incorporation into membrane-bound glycoconjugates in the presence of inhibitor, target or system Caco-2 cells, entry CN(C)CCCN1c2ccccc2Sc2ccc(Cl)cc21
Out: 50

In: Neu5Gc incorporation into membrane-bound glycoconjugates in the presence of inhibitor of O=c1c(-c2ccc(O)cc2)coc2cc(O)cc(O)c12 on Caco-2 cells?
Out: 34

In: Give recorded Neu5Gc incorporation into membrane-bound glycoconjugates in the presence of inhibitor with Caco-2 cells for the following compound: N=C(N)NC(=O)c1nc(Cl)c(N)nc1N [amiloride]
Out: 10

In: Observed Neu5Gc incorporation into membrane-bound glycoconjugates in the presence of inhibitor on Caco-2 cells for C[C@@H]1[C@H](O)[C@@H](C)/C=C/C=C/CC/C=C/C=C/C=C/C=C/C(O[C@H]2O[C@H](C)[C@@H](O)[C@H](N)[C@@H]2O)CC2O[C@](O)(CC(O)C(O)CCC(O)CC(O)CC(O)CC(=O)O[C@H]1C)CC(O)C2C(=O)O (stereo partly shown) , please.
Out: 44

Hey, just so you know, these numbers are from patent US8232448B2.
